# measured target: T1, hVISTA-ECD 6-His tag (human, UniProt Q9H7M9 33-193)
# T1 construct: also called monovalent hVISTA-ECD; human VISTA
# T1 sequence (Q9H7M9 other isoform, or with tags, fused parts or gaps limits assumed): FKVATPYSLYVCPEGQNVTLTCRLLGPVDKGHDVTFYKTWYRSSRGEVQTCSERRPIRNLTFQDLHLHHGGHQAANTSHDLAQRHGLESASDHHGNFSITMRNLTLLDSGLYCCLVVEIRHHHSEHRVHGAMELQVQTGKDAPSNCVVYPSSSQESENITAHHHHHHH
# test name: SPR 37 C, Ab on Protein A, pH 6.0
measurement kind: Kd (nM)
Reply numerically in nM, unit not repeated.

I have this binder here, P1-077861 (P1-068744 H50I E102Y) (antibody, V domains shown) VH: QVQLVESGGGVVQPGRSLRLSCAASGFTFSEYAMHWVRQAPGKGLEWVAIIWYDGSNKYEADSVKGRFTISRDNSKNTLYLQMNSLRAEDTAVYYCARDSGFYESYYFDYWGQGTLVTVSS VL: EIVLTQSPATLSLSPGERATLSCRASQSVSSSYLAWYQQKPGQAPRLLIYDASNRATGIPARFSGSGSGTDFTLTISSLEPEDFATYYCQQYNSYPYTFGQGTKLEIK , and I need its recorded Kd.
2.6
